Tested on: MDR P. aeruginosa clinical isolate 004B1-3
Test: Minimum inhibitory concentration (MIC) assay
Type: cell-based, Pseudomonas aeruginosa
Details: MHB, 10^5 CFU/well, peptide 0-50 μM, 37 °C, 20 h, OD600; average of n = 6 replicates from N = 3 biological experiments; asterisk = beyond 50 μM
property: MIC, Isolate 004B1-3 (µM)
Numbers only, in µM.

These recorded examples may help you get a feel for the data.
H-WAKKAAKIGAKLLPSVVKLFKGSGQ-NH2 [PonAmp 2A] ... 11.46
H-KKKKKKWLGSALIGALLPSVVGLFQ-NH2 [PonN] ... 1.56
H-WLGSALKIGAKLLPSVVGLFKKKKQ-NH2 [Ponericin W1, reference compound] ... 1.17
H-WLKKALKIGAKLLPSVVKLFKGSGQ-NH2 [PonAmp] ... 1.56
H-WAGSAAIGAALPSVVGLFQKKKKKK-NH2 [PonC 3A] ... 5.73
H-WAGSAAIGALLPSVVGLFQKKKKKK-NH2 [PonC 2A] ... 2.08
H-KKKKKKWAGSAAIGAALPSVVGLFQ-NH2 [PonN 3A] ... 4.69
H-KKKKKKWAGSAAIGALLPSVVGLFQ-NH2 [PonN 2A] ... 1.82

// next item, MIC, Isolate 004B1-3 requested
Q: Form field: reported MIC, Isolate 004B1-3 of H-WLGSALIGALLPSVVGLFQKKKKKK-NH2 [PonC]
Result: 1.30
